Below is a list of entries, each paired with its recorded pIC50 value.
Subject Of Test: human ENT1 (Homo sapiens, UniProt Q99808)
Sequence (Q99808 1-456): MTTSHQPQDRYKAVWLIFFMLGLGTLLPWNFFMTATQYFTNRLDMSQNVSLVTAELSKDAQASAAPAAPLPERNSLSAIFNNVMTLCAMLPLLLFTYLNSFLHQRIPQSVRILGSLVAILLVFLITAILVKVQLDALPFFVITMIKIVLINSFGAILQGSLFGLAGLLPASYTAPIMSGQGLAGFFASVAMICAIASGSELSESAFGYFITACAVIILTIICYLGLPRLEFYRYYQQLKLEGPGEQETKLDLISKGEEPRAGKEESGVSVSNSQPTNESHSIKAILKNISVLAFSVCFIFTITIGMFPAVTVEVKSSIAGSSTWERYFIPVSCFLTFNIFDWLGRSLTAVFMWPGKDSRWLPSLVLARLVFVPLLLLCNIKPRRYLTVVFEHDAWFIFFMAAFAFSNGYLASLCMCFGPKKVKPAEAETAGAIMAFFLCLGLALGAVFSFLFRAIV
Assay Name: ENT1 binding assay (competition with Sahenta-DY647 on JAR cells)
Design: JAR cells expressing ENT1 were bought from ATCC; host or cells: JAR cells
Condition Label: binned IC50
pIC50: −log10 of the molar value.

COCCN(CCOC)c1nc(N2CC[C@H](OC)C2)c2nc(N(CCOC)CCOC)nc(N3CCC(OC)CC3)c2n1 :: 6.30 to 7.00

## Task Name the recorded pIC50 of the compound listed here: COCCN(CCOC)c1nc(N2CCc3cn[nH]c3C2)c2nc(N(CCOC)CCOC)nc(N3CCN(C)C(=O)C3)c2n1
## Result > 7.00

## Task # return recorded pIC50 for input COCCN(CCOC)c1nc(N2CCC(OC)CC2)c2nc(N(CCOC)CCOC)nc(NCc3cc(C)no3)c2n1
## Result 6.00 to 6.30

## Task Provide one value: measured pIC50 of COCCN(CCOC)c1nc(N2CCN(C)C(=O)C2)c2nc(N3CCNC(=O)C3)nc(N3CCC(OC)CC3)c2n1
## Result 6.30 to 7.00

## Task Look up and report measured pIC50 for this entry: COCCN(CCOC)c1nc(N2CCC(OC)CC2)c2nc(N(CCOC)CCOC)nc(OCc3cccc(C#N)c3)c2n1
## Result 6.30 to 7.00

## Task Return pIC50 for the following compound: COCCN(CCOC)c1nc(N2CCN(c3ncn(C)n3)CC2)c2nc(N(CCOC)CCOC)nc(NCc3cccc(OC(F)(F)F)c3)c2n1
## Result > 7.00

## Task State its pIC50 for this compound: CCCCNc1nc(N(CCOC)CCOC)nc2c(N3CCC(OC)CC3)nc(N(CCOC)CCOC)nc12
## Result > 7.00

## Task Return pIC50 (reported value) for this compound: COCCN(CCOC)c1nc(N2CCC(OC)CC2)c2nc(OCc3ccc(C)nc3)nc(N3CCC(OC)CC3)c2n1
## Result 6.30 to 7.00

## Task State its pIC50: COCCN(CCOC)c1nc(N2CCn3ncnc3C2)c2nc(N(CCOC)CCOC)nc(N3CCC(OC)CC3)c2n1
## Result > 7.00

## Task Return pIC50 (reported value) for this compound: COCCN(CCOC)c1nc(N2CC(=O)N3CCCC3C2)c2nc(N(CCO)CCO)nc(N3CCC(OC)CC3)c2n1 (centres unmarked)
## Result 6.00 to 6.30

* * *

Subject Of Test: human ENT1 (Homo sapiens, UniProt Q99808)
Sequence (Q99808 1-456): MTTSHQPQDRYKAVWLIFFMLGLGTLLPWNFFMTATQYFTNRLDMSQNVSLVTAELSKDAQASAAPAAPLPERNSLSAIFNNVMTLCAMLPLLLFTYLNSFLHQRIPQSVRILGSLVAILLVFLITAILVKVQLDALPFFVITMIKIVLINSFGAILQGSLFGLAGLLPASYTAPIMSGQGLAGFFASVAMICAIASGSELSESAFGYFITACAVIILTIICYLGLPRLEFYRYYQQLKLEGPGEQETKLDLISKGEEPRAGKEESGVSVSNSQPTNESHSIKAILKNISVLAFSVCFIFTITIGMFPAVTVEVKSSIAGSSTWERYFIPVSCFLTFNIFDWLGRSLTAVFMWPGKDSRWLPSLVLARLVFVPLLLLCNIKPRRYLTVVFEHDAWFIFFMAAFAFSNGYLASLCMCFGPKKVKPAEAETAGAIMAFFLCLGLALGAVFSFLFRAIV
Assay Name: ENT1 binding assay (competition with Sahenta-DY647 on JAR cells)
Set-up: JAR cells expressing ENT1 were bought from ATCC; host or cells: JAR cells
Condition Label: binned IC50
pIC50: −log10 of the molar value.
Property Measured: pIC50

COCCN(CCOC)c1nc(N2CCC(OC)CC2)c2nc(N(CCOC)CCOC)nc(NCc3ccc(F)c(F)c3)c2n1 :: > 7.00
COCCN(CCOC)c1nc(N2CCc3oc(C)nc3C2)c2nc(N(CCOC)CCOC)nc(N3CCN(C)C(=O)C3)c2n1 :: > 7.00
COCCN(CCOC)c1nc(N2CCN(C)C(=O)C2)c2nc(N(CCOC)CCOC)nc(NCc3ccccc3)c2n1 :: > 7.00

Consider now this further compound.
## Task Provide pIC50, recorded with human ENT1 (Homo sapiens, UniProt Q99808), of COCCN(CCOC)c1nc(N2CCN(C)C(=O)C2)c2nc(N3CCN(C(C)=O)CC3)nc(N3CCC(OC)CC3)c2n1
## Result 6.00 to 6.30

* * *

# pIC50 listing for each entry below
Subject Of Test: human ENT1 (Homo sapiens, UniProt Q99808)
Assay Name: ENT1 binding assay (competition with Sahenta-DY647 on JAR cells)
Parameters: JAR cells expressing ENT1 were bought from ATCC; host or cells: JAR cells
Condition Label: binned IC50
pIC50: −log10 of the molar value.

COCCN(CCOC)c1nc(N2CCC(OC)CC2)c2nc(N(CCOC)CCOC)nc(NCC3CCOCC3)c2n1 [Compound 46] :: 6.30 to 7.00
COCCN(CCOC)c1nc(N2CCN(C)C(=O)C2)c2nc(N(CCOC)CCOC)nc(NCc3cccc(Cl)c3)c2n1 [Compound 208] :: > 7.00
COCCN(CCOC)c1nc(N2CCN(C)C(=O)C2)c2nc(N3CCn4ccnc4C3)nc(N3CCC(OC)CC3)c2n1 [Compound 296] :: 6.30 to 7.00

Note: attention shifts to another entry.
## Task Tell me its pIC50 given COCCN(CCOC)c1nc(N2CCN(c3ncn(C)n3)CC2)c2nc(N(CCOC)CCOC)nc(NCc3ccc(F)c(C#N)c3)c2n1 [Compound 225] as the entry.
## Result > 7.00

* * *

Subject Of Test: human ENT1 (Homo sapiens, UniProt Q99808)
Sequence (Q99808 1-456): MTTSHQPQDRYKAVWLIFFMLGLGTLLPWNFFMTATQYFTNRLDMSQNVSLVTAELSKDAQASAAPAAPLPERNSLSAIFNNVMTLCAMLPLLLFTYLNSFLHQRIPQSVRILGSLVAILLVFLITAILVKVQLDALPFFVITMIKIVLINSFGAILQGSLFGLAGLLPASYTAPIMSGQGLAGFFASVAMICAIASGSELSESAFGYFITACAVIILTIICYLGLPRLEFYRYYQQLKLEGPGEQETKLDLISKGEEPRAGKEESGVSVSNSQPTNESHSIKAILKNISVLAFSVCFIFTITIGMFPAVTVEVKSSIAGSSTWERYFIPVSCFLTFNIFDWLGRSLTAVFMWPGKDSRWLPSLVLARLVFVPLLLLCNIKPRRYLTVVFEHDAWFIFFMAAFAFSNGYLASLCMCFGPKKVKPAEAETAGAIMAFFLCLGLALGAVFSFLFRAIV
Assay Name: ENT1 binding assay (competition with Sahenta-DY647 on JAR cells)
Set-up: JAR cells expressing ENT1 were bought from ATCC; host or cells: JAR cells
Condition Label: binned IC50
Each entry below carries its reported IC50.

## Task For the compound COCCN(CCOC)c1nc(N2CCC(F)C2)c2nc(N(CCOC)CCOC)nc(N3CCC(OC)CC3)c2n1 (stereo not shown) , give its measured IC50 value.
## Result 100 to 500 nM

* * *

Subject Of Test: human ENT1 (Homo sapiens, UniProt Q99808)
Sequence (Q99808 1-456): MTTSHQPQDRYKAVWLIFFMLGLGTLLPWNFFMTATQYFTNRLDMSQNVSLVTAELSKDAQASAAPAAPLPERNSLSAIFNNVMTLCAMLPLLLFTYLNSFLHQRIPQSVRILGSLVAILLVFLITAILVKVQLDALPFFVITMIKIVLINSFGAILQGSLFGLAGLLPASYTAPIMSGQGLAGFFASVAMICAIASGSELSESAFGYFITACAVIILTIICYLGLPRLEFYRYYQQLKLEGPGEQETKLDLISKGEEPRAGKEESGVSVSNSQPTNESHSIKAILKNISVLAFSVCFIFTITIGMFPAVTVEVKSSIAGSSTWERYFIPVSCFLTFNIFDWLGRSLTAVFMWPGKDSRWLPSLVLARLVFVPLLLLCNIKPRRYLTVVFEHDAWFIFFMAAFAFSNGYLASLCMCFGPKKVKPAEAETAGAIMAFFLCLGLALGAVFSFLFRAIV
Assay Name: ENT1 binding assay (competition with Sahenta-DY647 on JAR cells)
Design: JAR cells expressing ENT1 were bought from ATCC; host or cells: JAR cells
Condition Label: binned IC50
Property Measured: IC50

Reference set, count: 3
COCCN(CCOC)c1nc(N2CCC(OC)CC2)c2nc(N(CCOC)CCOC)nc(NCCOc3ccccc3)c2n1 :: 100 to 500 nM
COCCN(CCOC)c1nc(N2CCC(OC)CC2)c2nc(N(CCOC)CCOC)nc(NCc3ccc(OC)cc3)c2n1 :: 100 to 500 nM
COCCN(CCOC)c1nc(N2CCN(C)C(=O)C2)c2nc(N(CCOC)CCOC)nc(N3CCN(C)C(=O)C3)c2n1 :: 100 to 500 nM

## Task Input COCCN(CCOC)c1nc(N2CCC(OC)CC2)c2nc(N(CCOC)CCOC)nc(N3CCCCC3)c2n1 , output reported IC50.
## Result 500 to 1000 nM

## Task Give the value of IC50 reported for the following: COCCN(CCOC)c1nc(N2CCC(OC)CC2)c2nc(N(CCOC)CCOC)nc(NCc3ccc(C#N)cc3)c2n1
## Result 100 to 500 nM

## Task Write down IC50 measured for item COCCN(CCOC)c1nc(N2CCC(OC)CC2)c2nc(N(CCOC)CCOC)nc(NCc3cnc(Cl)s3)c2n1
## Result 500 to 1000 nM

## Task Give a short answer stating reported IC50 for COCCN(CCOC)c1nc(N2CCN(C)C(=O)C2)c2nc(N(CCOC)CCOC)nc(NCc3cccc(F)c3)c2n1 .
## Result < 100 nM

## Task Report IC50 for COCCN(CCOC)c1nc(N2CCN(c3ncn(C)n3)CC2)c2nc(N(CCOC)CCOC)nc(N(C)Cc3cccc(C(N)=O)c3)c2n1
## Result 100 to 500 nM

## Task # return recorded IC50 for input COCCN(CCOC)c1nc(N2CCN(C)C(=O)C2)c2nc(N(CCOC)CCOC)nc(N(C)Cc3cccc(C#N)c3)c2n1
## Result < 100 nM
